We begin with a simple list: items and their reported growth inhibition.
assay: NCI Yeast Anticancer Drug Screen. Data for the mec2-1 strain (AID 157); settings: S. cerevisiae mec2-1 strain, at 5.0 µM (retest, dose inferred, filed as 0.5), active compounds read high
Compounds without any hit were thinned out: in the full panel of roughly 79,000, 15% have a hit.
Field format: number, assumed %, no unit text.

compound	unit_info	growth inhibition
CCC(C)(c1ccc(O)c(C)c1)c1ccc(O)c(C)c1	%	42
CC(=O)CC(=O)/C=C/c1cccs1	%	94
CC(=O)Oc1ccc(N2C(=O)C3c4[nH]c5ccccc5c4C4CCC(C(C)(C)C)CC4C3C2=O)cc1 (stereo unspecified)	%	99
COc1cccc(C(c2cc3c(cc2O)OCO3)N2CCOCC2)c1OC (stereo unspecified)	%	-1
O=C(Nc1ccc2c(c1)Cc1c-2ccc([N+](=O)[O-])c1F)C(F)(F)F	%	-17

# evaluate next
Query block: Return value of growth inhibition for input "O=C(N/N=C\c1c(Cl)cccc1Cl)N/N=C/c1c(Cl)cccc1Cl" , no commentary.
Result block: 35

The origin of these recorded values is PubChem BioAssay (NCI).
